Measured Cell viability accompanies every entry in the list below.
# Test system: BHK-21 cells
# Assay method text: Cell viability per well (percentage of cells remaining) observed under a microscope in the drug screening test
# Assay type: cell-based, hamster
# Experimental parameters: infected BHK-21 cells with drug, 36 hours
# Description: (1) A 96-well plate for BHK-21 cells was prepared. The cells were planked at 10^4 cells/well. The plate was cultured in a cell incubator with a temperature of 37° C. and a CO2 concentration of 5%. […] (4) Cell viability per well (and the percentage of cells remaining per well) was observed under a microscope and the half-maximal effect concentration (EC50) of the drug was calculated using GraphPad Prism 9 software and an EC50 graph was plotted.
Please state the figure in %; there is no need to write the unit.

Compound	Cell viability (%)
C[C@H](CCC(=O)O)[C@H]1CC[C@H]2[C@@H]3[C@H](O)C[C@@H]4C[C@H](O)CC[C@]4(C)[C@H]3CC[C@]12C [Chenodeoxycholic acid, reference compound]	70
CC(C)=CCC(OC(=O)C=C(C)C)C1=CC(=O)c2c(O)ccc(O)c2C1=O (centres unmarked)	70
C[C@@]12C(=O)OC(=O)[C@]1(C)[C@H]1CC[C@@H]2O1	50
C=C[C@H]1[C@H](O[C@@H]2O[C@H](CO)[C@@H](O)[C@H](O)[C@H]2O)OC=C(C(=O)OC)[C@H]1CC(=O)O	100
CC(C)=CCc1c(O)ccc(C(=O)/C=C/c2ccc(O)cc2)c1O	30

Ask | Param readout = Cell viability; param system = BHK-21 cells; param query = CC(C)=CCc1cc2c(cc1O)oc(=O)c1c3ccc(O)cc3oc21 ; response: value
Reply | 50

Ask | Param readout = Cell viability; param system = BHK-21 cells; param query = COc1ccc(-c2cc(=O)c3c(O)cc(O[C@@H]4O[C@H](CO[C@@H]5O[C@@H](C)[C@H](O)[C@@H](O)[C@H]5O)[C@@H](O)[C@H](O)[C@H]4O)cc3o2)cc1O [Diosmin, reference compound] ; response: value
Reply | 100

Ask | Param readout = Cell viability; param system = BHK-21 cells; param query = Oc1cc(O)c2c(c1)O[C@H](c1cc(O)c(O)c(O)c1)[C@H](O)C2 [Epigallocatechol] ; response: value
Reply | 0

Data origin, for the record: patent US12013390B2
